Molecular target: Polyunsaturated fatty acid lipoxygenase ALOX12 (Homo sapiens) (UniProt P18054)
Sequence (P18054 whole entry, looked up): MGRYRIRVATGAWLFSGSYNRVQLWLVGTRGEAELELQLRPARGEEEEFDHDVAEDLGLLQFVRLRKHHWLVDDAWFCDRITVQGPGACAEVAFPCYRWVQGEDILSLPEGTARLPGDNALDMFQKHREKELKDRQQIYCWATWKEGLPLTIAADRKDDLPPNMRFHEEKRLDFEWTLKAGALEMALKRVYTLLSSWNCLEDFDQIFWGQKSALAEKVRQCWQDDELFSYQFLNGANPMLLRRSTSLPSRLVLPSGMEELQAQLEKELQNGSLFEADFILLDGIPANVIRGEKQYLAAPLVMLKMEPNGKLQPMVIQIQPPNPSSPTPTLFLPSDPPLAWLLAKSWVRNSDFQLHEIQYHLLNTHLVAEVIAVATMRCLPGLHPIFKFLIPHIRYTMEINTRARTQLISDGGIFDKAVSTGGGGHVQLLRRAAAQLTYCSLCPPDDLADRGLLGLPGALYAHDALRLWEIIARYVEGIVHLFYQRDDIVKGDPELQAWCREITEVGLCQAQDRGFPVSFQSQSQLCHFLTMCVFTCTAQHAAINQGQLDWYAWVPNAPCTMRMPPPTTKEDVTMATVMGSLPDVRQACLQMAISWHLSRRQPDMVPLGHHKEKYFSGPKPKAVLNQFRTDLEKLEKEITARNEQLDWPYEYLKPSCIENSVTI
Assay: Activators of 12-hLO (12-human lipoxygenase): 12hLO Cuvette-Based Hit Validation Assay of Followup Compounds
Details: purified 12-hLO, cuvette UV 234 nm product formation
Description: The enzyme activity of 12-hLO was determined by a direct measurement of product formation by monitoring the absorbance at 234 nm in a 2 mL cuvette. […] For control experiments, 2 mL of substrate buffer (10 uM arachidonic acid / 25 mM HEPES / 0.01% (v/v) Triton X-100, pH 8.0) was aliquoted in a cuvette with a magnetic stir bar. […] 3; No change in absorbance ensured. […] 5; No change in absorbance ensured. […]
The source made the active and inactive calls.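 Rule for the calls: active = compounds that raised 12-lipoxygenase product formation in the cuvette follow-up test, with a fitted potency; inactive = the rest, inconclusive results apart.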
Response enum: yes (active), no (inactive)

For orientation, consider the following solved cases.
COc1cc(CNc2ccc(O)cc2)cc(Br)c1OCc1ccccc1F: no
CCOc1ccc(-c2[nH]ncc2Oc2cccc(OC)c2)c(O)c1: no
CN(C)c1nccc(N(Cc2ccccc2)Cc2ccccc2)c1C#N: no

Q: State the result this test recorded for N#CC1=C(N)Oc2n[nH]c(-c3cccs3)c2C1C1CCCCC1 (stereo unspecified) .
Result: no

Q: State the result this test recorded for `Cc1cccnc1NCc1ccc(O)c2ncccc12` .
Result: yes

Q: State the result this test recorded for `Oc1ccccc1-c1cc(-c2ccc3c(c2)OCCO3)n[nH]1` .
Result: no
